Origin of measurements: patent US20060093617A1

- experimental-system: HLA-Cw07 (Homo sapiens, UniProt P10321)
- Construct: endogenous in cells
- protocol-details: HLA class I competition cell-based binding assay
Where a SMILES comes first, the peptide text is derived from it.
measurement-kind: Ki (nM)

compound: CC[C@H](C)[C@H](NC(=O)[C@@H](NC(=O)[C@H](CO)NC(=O)[C@@H](NC(=O)[C@H](CC(=O)O)NC(=O)[C@H](CC(C)C)NC(=O)CNC(=O)[C@H](CCCNC(=N)N)NC(=O)[C@H](Cc1ccc(O)cc1)NC(=O)[C@@H](N)Cc1ccc(O)cc1)C(C)C)C(C)C)C(=O)O (H-YYRGLDVSVI-OH)
numeric-value: 87
--
compound: CC(C)C[C@H](NC(=O)[C@H](Cc1ccccc1)NC(=O)[C@H](CCCCN)NC(=O)CNC(=O)[C@H](Cc1ccc(O)cc1)NC(=O)[C@@H](NC(=O)[C@H](CO)NC(=O)[C@H](Cc1ccc(O)cc1)NC(=O)[C@@H](N)[C@@H](C)O)[C@@H](C)O)C(=O)O
numeric-value: 239
--
compound: CC[C@H](C)[C@H](NC(=O)[C@@H]1CCCN1C(=O)[C@@H](NC(=O)[C@H](C)NC(=O)[C@H](CCCCN)NC(=O)CNC(=O)[C@H](Cc1ccc(O)cc1)NC(=O)[C@@H](N)Cc1ccccc1)[C@@H](C)CC)C(=O)N[C@@H](CCC(=O)O)C(=O)N[C@H](C(=O)O)C(C)C
numeric-value: 31
--
compound: CC[C@H](C)[C@H](NC(=O)[C@@H]1CCCN1C(=O)[C@H](C)NC(=O)[C@H](CC(C)C)NC(=O)[C@H](CC(C)C)NC(=O)[C@@H](N)CCCNC(=N)N)C(=O)N[C@H](C(=O)N[C@@H](C)C(=O)N[C@@H](Cc1ccc(O)cc1)C(=O)O)[C@@H](C)O
numeric-value: 4820
--
compound: CC(C)C[C@H](NC(=O)[C@@H](NC(=O)CNC(=O)[C@H](CO)NC(=O)[C@H](C)NC(=O)[C@H](CCCNC(=N)N)NC(=O)[C@H](CS)NC(=O)[C@H](CCCNC(=N)N)NC(=O)[C@H](CCCNC(=N)N)NC(=O)[C@@H](N)Cc1ccc(O)cc1)C(C)C)C(=O)O (H-YRRCRASGVL-OH)
numeric-value: 83
--
compound: CC[C@H](C)[C@H](NC(=O)[C@H](CC(C)C)NC(=O)[C@H](CCCNC(=N)N)NC(=O)[C@H](C)NC(=O)[C@@H]1CCCN1C(=O)[C@H](CCCCN)NC(=O)[C@H](CCCNC(=N)N)NC(=O)CN)C(=O)N[C@H](C(=O)N[C@@H](Cc1ccccc1)C(=O)O)C(C)C (H-GRKPARLIVF-OH)
numeric-value: 753
--
compound: N=C(N)NCCC[C@H](NC(=O)[C@H](CCC(N)=O)NC(=O)[C@@H](N)CC(=O)O)C(=O)N1CCC[C@H]1C(=O)N[C@@H](Cc1ccc(O)cc1)C(=O)N[C@@H](CS)C(=O)N[C@@H](Cc1c[nH]c2ccccc12)C(=O)N[C@@H](Cc1c[nH]cn1)C(=O)N[C@@H](Cc1ccc(O)cc1)C(=O)O (H-DQRPYCWHY-OH; N-terminus and C-terminus assumed)
numeric-value: 710
--
compound: CC[C@H](C)[C@H](NC(=O)[C@H](Cc1ccc(O)cc1)NC(=O)[C@@H](N)CCCCN)C(=O)N[C@@H](CCSC)C(=O)N[C@@H](C)C(=O)N[C@@H](CS)C(=O)N[C@@H](CCSC)C(=O)N[C@@H](CO)C(=O)N[C@@H](C)C(=O)O
numeric-value: 7210
